assay: Cytotoxicity, neutral red uptake assay, AGS; assay type: cell-based; settings: human, AGS gastric adenocarcinoma cells, confluent monolayers, confluent cultures, 0-1000 µM, mean ± SD
Each entry below lists one item and its recorded IC50 at 24 h value.
Please state the figure in µM; there is no need to write the unit.

COMPOUND	IC50 at 24 h / µM
C=C1CCC2[C@](C)(CCC[C@]2(C)C(=O)O)[C@H]1CC[C@@H](C)CC(=O)N[C@H](C(=O)OC)C(C)C (stereo partly drawn)	309

Lab note: next compound to report on.
Record summary for COC(=O)[C@H](Cc1c[nH]c2ccccc12)NC(=O)C[C@H](C)CCC1=C(C)CCC2[C@@](C)(C(=O)O)CCC[C@]12C (stereo partly drawn) : reported IC50 at 24 h = 149
